Ok so here's the combined literature set: Ki for Adenosine receptor A2a (Rattus norvegicus, UniProt P30543).
Readout Label: Ki (nM)

Reference set, count: 4
{"columns": ["Molecule", "Readout Label", "Unit String", "Test Value"],
 "data": [
  ["Cc1cc(C)n(-c2cc(NC(=O)CN3CC[C@H](N(C)C)C3)nc(-c3ccc(C)o3)n2)n1", "Ki", "nM", 160],
  ["Nc1nc(C#CCOc2ccccc2)cn2nc(-c3ccco3)nc12", "Ki", "nM", 390],
  ["CCNC(=O)[C@H]1OC(n2cnc3c(N)nc(C#Cc4ccc(N)cc4)nc32)[C@H](O)[C@@H]1O (stereo partly specified)", "Ki", "nM", 113],
  ["CCCn1c(=O)c2[nH]c(-c3ccc(O)cc3O)nc2n(CCC)c1=O", "Ki", "nM", 107]
]}

1 = CCNC(=O)[C@H]1O[C@@H](n2cnc3c(NC(=O)Nc4ccccc4C(F)(F)F)ncnc32)[C@H](O)[C@@H]1O
2 = CCCC/C=C\c1nc(N)c2ncn([C@@H]3O[C@H](CO)[C@@H](O)[C@H]3O)c2n1
3 = Nc1cc(NC[C@H]2CCCN2Cc2ccnc(Cl)c2)nc2nc(-c3ccco3)nn12
Would you mind ranking these molecules by ascending Ki? Use the labels to give the requested order.
3, 2, 1
(3: 79 nM, 2: 757 nM, 1: 10000 nM)

P = CCCc1c(C(=O)SCC)c(CC)nc(-c2ccccc2)c1C(=O)OCCCF
Q = CCCn1c(=O)c2nc(C3CCCC3)[nH]c2n(CCC[18F])c1=O
Of P versus Q , which is the one with smaller reported Ki? Kindly give the label for the entry you pick.
Q

* * *

Ok so here's the combined literature set: Ki for Adenosine receptor A2a (Rattus norvegicus).
Readout Label: Ki (nM)

{"columns": ["Compound", "Unit String", "Test Value"],
 "data": [
  ["CCCSC[C@H]1O[C@@H](n2cnc3c(N)nc(N/N=C/CC(C)C)nc32)[C@H](O)[C@@H]1O", "nM", 1500],
  ["OC[C@H](Cc1ccccc1)Nc1nc(I)nc2c1ncn2C1O[C@H](CO)[C@@H](O)[C@H]1O (stereo partly drawn)", "nM", 1360],
  ["Cn1c(=O)c2c(nc3n2CCCN3CCOCc2ccc(Cl)cc2)n(C)c1=O", "nM", 1330]
]}

* * *

pKi: −log10 of the molar value.
Ok so here's the combined literature set: pKi for Adenosine receptor A2a (Rattus norvegicus).
Readout Label: pKi

Reference set, count: 4
{"columns": ["Compound", "pKi"],
 "data": [
  ["Nc1nc(N2CCN(Cc3c(Cl)ccc(F)c3F)CC2)nc2nc(-c3ccco3)nn12", 8.30],
  ["CCCCCC(=O)Nc1nc(Oc2ccccc2)nc2nc(-c3ccco3)nn12", 6.72],
  ["CCCc1c(C(=O)SCC)c(CC)nc(-c2ccccc2)c1C(=O)OCC(F)(F)C(F)(F)F", 4.85],
  ["Cn1c(=O)c2c(nc(/C=C/c3cccc(NC(=O)CCCC(=O)O)c3)n2C)n(C)c1=O", 8.00]
]}

A = NCCCCC(=O)Nc1nc2ccc(Cl)cc2c2nc(-c3ccco3)nn12
B = Nc1nc(-c2cccc(CN3CCC(c4ccc(F)cc4)CC3)c2)cc2nc(-c3ccco3)nn12
Of A versus B , which is the one with smaller reported pKi? Kindly give the label for the entry you pick.
B
(B: 8.13, A: 8.95)

A = Nc1nc(NC[C@H]2CCCN2Cc2ccc(C(F)(F)F)cc2F)nc2nc(-c3ccco3)nn12
B = Cn1c(=O)c2c(nc3n2CCCN3CCOc2ccc(Cl)cc2Cl)n(C)c1=O
Short answer wanted: higher pKi, A or B ? Kindly give the label for the entry you pick.
A
(A: 8.30, B: 5.96)

a = CCNC(=O)[C@H]1O[C@@H](n2cnc3c(NC(=O)Nc4ccc(OC)cc4)nc(C#CCCCc4ccccc4)nc32)[C@H](O)[C@@H]1O
b = COc1ccc(OC)c(-c2cc3nc(-c4ccco4)nn3c(N)n2)c1
c = CCCOC(=O)c1c(-c2ccccc2)nc(CCF)c(C(=O)SCC)c1CCC
d = OC[C@H]1OC(n2cnc3c(NC4CCCCCCC4)ccnc32)[C@H](O)[C@@H]1O (stereo partly specified)
e = CCN(CC)[C@H]1CCN(CC(=O)Nc2cc(-n3nc(C)cc3C)nc(-c3ccc(C)o3)n2)C1
Would you mind ranking these compounds by ascending pKi? Use the labels to give the requested order.
c, d, a, e, b

* * *

Ok so here's the combined literature set: Ki for Adenosine receptor A2a (Rattus norvegicus).
Readout Label: Ki (nM)

1 = COCc1nc(N)c2ncn(C3O[C@H](CO)[C@@H](O)[C@H]3O)c2n1 (some centres undefined)
2 = O=C1N(c2ccccc2)c2nc[nH]c(=O)c2C12CCCC2
3 = Cn1c(=O)c2c(nc3n2CCCN3CCc2ccc(OCCN3CCOCC3)cc2)n(C)c1=O
Order by Ki, ascending. Use the labels to give the requested order.
1, 3, 2

* * *

Ok so here's the combined literature set: Ki for Adenosine receptor A2a (Rattus norvegicus, UniProt P30543).

Reference set, count: 2
{"columns": ["Structure As Smiles", "Study Target", "Test Value"],
 "data": [
  ["O=C1NC(=O)c2c1nc(-c1ccccc1)nc2-c1ccccc1", "Adenosine receptor A2a (Rattus norvegicus, UniProt P30543)", "> 100000 nM"],
  ["Cc1cc(CN2CCn3c(nc4c3c(=O)n(C)c(=O)n4C)C2)n(C)n1", "Adenosine receptor A2a (Rattus norvegicus, UniProt P30543)", "> 1000 nM"]
]}

# context switch: different compound, same Ki
So what Ki did COc1ccc(C(=O)Nc2nc(-c3ccccc3)c(C(=O)c3ccc(F)cc3F)s2)cc1 get with Adenosine receptor A2a (Rattus norvegicus, UniProt P30543)?
> 1000 nM

* * *

Ok so here's the combined literature set: Ki for Adenosine receptor A2a (Rattus norvegicus, UniProt P30543).

Reference set, count: 3
{"columns": ["Structure As Smiles", "Ki"],
 "data": [
  ["Cc1c(C)n([C@H](C)c2ccccc2)c2nc(-c3ccccc3)nc(O)c12", "> 30 µM"],
  ["Oc1nc(-c2cccs2)nc2ccccc12", "> 100 µM"],
  ["COc1ccc(C(=O)Nc2nc(-c3ccccc3)c(-c3nc4ccccc4c(=O)n3-c3ccc(C)cc3)s2)cc1", "> 1 µM"]
]}

# context switch: different molecule, same Ki
So what Ki did Cn1c(=O)c2c(nc3n2CCCN3c2ccc(OCCN3CCCC3)cc2)n(C)c1=O get with Adenosine receptor A2a (Rattus norvegicus, UniProt P30543)?
> 1 µM

* * *

Ok so here's the combined literature set: Ki for Adenosine receptor A2a (Rattus norvegicus, UniProt P30543).

{"columns": ["Structure As Smiles", "Study Target", "Readout Label", "Test Value"],
 "data": [
  ["Cn1c(=O)c2c(nc3n2CCCN3CCOC(=O)Nc2cccc(Cl)c2)n(C)c1=O", "Adenosine receptor A2a (Rattus norvegicus, UniProt P30543)", "Ki", "> 10 µM"],
  ["Nc1ccc(-c2cn3nc(-c4ccco4)nc3c(N)n2)cc1", "Adenosine receptor A2a (Rattus norvegicus, UniProt P30543)", "Ki", "> 1 µM"]
]}

# lookup: Ki of Cn1cc(-c2nc(N)c3ncn([C@@H]4O[C@H](CO)[C@@H](O)[C@H]4O)c3n2)cn1
> 100 µM

* * *

Ok so here's the combined literature set: pKi for Adenosine receptor A2a (Rattus norvegicus).
pKi: −log10 of the molar value.

Reference set, count: 3
{"columns": ["Structure As Smiles", "Study Target", "pKi"],
 "data": [
  ["O=c1oc(-c2ccccc2)nc2ccccc12", "Adenosine receptor A2a (Rattus norvegicus)", "< 4.00"],
  ["Cc1cc(CNCC(C)(C)CNc2nc(N)n3nc(-c4ccco4)nc3n2)no1", "Adenosine receptor A2a (Rattus norvegicus)", "< 6.00"],
  ["CCCCCC(=O)Nc1nc(N(C)C)nc2nc(-c3ccco3)nn12", "Adenosine receptor A2a (Rattus norvegicus)", "< 5.00"]
]}

# context switch: different compound, same pKi
So what pKi did Cc1ccc(-c2oc3ccc(Cl)cc3c(=O)c2Cl)c(OC(C)C)c1 get with Adenosine receptor A2a (Rattus norvegicus)?
< 5.00

* * *

Ok so here's the combined literature set: Ki for Adenosine receptor A2a (Rattus norvegicus, UniProt P30543).

{"columns": ["Structure As Smiles", "Test Value"],
 "data": [
  ["CN(/N=C/[C@@H](O)[C@H](O)[C@@H](O)[C@@H](O)CO)c1nc(N)c2ncn([C@@H]3O[C@H](CO)[C@@H](O)[C@H]3O)c2n1", "> 1 µM"]
]}

# lookup: Ki of OC[C@@]12C[C@@H]1[C@@H](n1cnc3c(NC4CCCC4)ncnc31)[C@H](O)[C@@H]2O
6.8 µM

# lookup: Ki of COc1cccc(CCN2CCn3c(nc4c3c(=O)n(C)c(=O)n4C)C2)c1
> 1 µM
